molecular target: P2X purinoceptor 3 (Homo sapiens, UniProt P56373); experiment: Inhibition Assay: Stably expressing cell line (C6BU-1 cell transfected with human P2X3 receptor gene (GenBank accession number Y07683) was used. The cells were seeded in a 96-well microtiter plate at a concentration of 8000 cells/well and cultured in the medium (8.3% fetal bovine serum, 8.3% horse serum, 1% antibiotic and antifungal in DMEM) for one day at 37° C. under 5% carbon dioxide atmosphere. The medium was replaced with 4 μM Fluo-3-AM solution (20 mM HEPES, 137 mM NaCl, 2.7 mM KCl, 0.9 in M MgCl2, 5.0 mM CaCl2, 5.6 D-glucose, 2.5 mM probenecid, 1.0% BSA, and 0.08% Pluronic F-127, pH 7.5) and incubated at 37° C. under 5% dioxide carbon atmosphere for one hour. The plate was washed with washing buffer (20 mM HEPES, 137 mM NaCl, 2.7 mM KCl, 0.9 mM MgCl2, 5.0 mM CaCl2, 5.6 mM D-glucose, 2.5 mM probenecid, pH 7.5), and each well was added with 40 μL of this buffer. The plate was placed in High-Throughput Screening System FDSS 3000 (Hamamatsu Photonics K.K.). Measurement of fluorescence inte
Sequence (P56373 whole entry): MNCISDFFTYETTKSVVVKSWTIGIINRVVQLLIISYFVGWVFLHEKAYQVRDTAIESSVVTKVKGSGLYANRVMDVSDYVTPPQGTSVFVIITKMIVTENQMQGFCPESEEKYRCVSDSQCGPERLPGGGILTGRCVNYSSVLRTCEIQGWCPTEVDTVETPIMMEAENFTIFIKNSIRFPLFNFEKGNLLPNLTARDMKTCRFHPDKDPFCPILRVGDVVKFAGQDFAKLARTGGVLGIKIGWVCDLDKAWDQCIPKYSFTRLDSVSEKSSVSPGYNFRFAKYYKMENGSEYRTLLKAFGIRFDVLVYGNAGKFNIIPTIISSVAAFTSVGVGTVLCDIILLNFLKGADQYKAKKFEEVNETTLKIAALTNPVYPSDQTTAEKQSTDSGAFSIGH
pIC50: −log10 of the molar value.

record.smiles	pIC50
CCOC(=O)c1cnc(Nc2ccc(OC(C)C)c(F)c2)n(Cc2ccc(Cl)cc2)c1=O	7.15
CCOC(=O)c1cn(Cc2ccc(Cl)cc2)c(Nc2ccc(OC(C)C)c(F)c2)nc1=O	6.97
CCOC(=O)Nc1cnc(Nc2ccc(OC(C)C)c(F)c2)n(Cc2ccc(Cl)cc2)c1=O	7.48
